Target: T1, recombinant human VEGF165 (human, UniProt P15692 27-191)
T1 construct: mature; Isoform VEGF165 of the entry; also called hVEGF165; hVEGF
T1 sequence (P15692 other isoform, or with tags, fused parts or gaps): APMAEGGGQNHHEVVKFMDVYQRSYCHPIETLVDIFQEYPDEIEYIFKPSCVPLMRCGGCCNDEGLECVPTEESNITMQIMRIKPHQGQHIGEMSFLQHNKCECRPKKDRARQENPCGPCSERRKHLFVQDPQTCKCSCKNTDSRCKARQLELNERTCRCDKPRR
Assay: Biacore SPR, VEGF immobilized, pH 5
Task for the reader: assign each of the following binders its reported koff.
One number for each entry, in s⁻¹.

Hey, can you go through the list below and give me koff for every item?
1. 511-max (scFv, also called ESBA802) scFv: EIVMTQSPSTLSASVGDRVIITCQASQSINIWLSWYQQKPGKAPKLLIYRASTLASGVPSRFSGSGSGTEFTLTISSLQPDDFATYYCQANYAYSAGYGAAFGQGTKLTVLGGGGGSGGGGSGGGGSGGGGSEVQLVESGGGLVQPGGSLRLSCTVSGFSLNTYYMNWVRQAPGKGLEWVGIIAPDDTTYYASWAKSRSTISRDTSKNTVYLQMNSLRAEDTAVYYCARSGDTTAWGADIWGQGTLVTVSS
2. 578-max (scFv, also called EP578max; #821) scFv: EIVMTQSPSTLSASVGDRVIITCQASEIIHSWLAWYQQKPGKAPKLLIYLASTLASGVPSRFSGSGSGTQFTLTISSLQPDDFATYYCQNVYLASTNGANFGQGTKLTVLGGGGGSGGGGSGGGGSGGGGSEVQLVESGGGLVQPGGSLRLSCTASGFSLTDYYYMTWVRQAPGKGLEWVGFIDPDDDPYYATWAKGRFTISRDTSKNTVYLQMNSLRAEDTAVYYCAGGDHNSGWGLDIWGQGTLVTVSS

Response given:
4.4e-05
0.000307

Challenge: Which koff is reported for this binder? 509-max (scFv, VL and VH tied by name; also called Protein Nr; 855) scFv: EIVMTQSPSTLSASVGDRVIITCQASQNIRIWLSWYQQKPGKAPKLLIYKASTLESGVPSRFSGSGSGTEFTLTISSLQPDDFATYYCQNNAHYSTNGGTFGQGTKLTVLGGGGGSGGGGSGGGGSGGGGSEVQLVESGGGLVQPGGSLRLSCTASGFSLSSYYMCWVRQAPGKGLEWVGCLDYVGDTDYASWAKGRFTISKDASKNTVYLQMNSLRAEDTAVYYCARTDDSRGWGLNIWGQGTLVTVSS
Response given: 0.00272

Measured values drawn from patent US20150274820A1 for this set.
